# testName: NCI Yeast Anticancer Drug Screen. Data for the mlh1 rad18 strain (AID 175)
# recordedConditions: S. cerevisiae mlh1 rad18 strain growth inhibition; at 50.0 µM
Compounds without any hit were thinned out: in the full panel of roughly 79,000, 15% have a hit. Activity calls are given as the source filed them. Rule as the data show it: active = growth inhibition above about 70%; inactive = the rest.
Pick one: active, inactive

Outcome? NC1=NOC(=O)C1Cc1ccccc1 (centres undefined)
inactive

What classification did N#COc1ccc(Oc2ccc(OC#N)cc2)cc1 end up with in this test?
inactive

Returns: the outcome recorded for OC(C1CCC=NN1C(O)(C(F)(F)F)C(F)(F)F)(C(F)(F)F)C(F)(F)F (centres undefined) in this assay.
active

Status in this test for CC1=CCC[C@@H]2C1(C)CCC(C)[C@@]2(C)CC1=CC(=O)C=CC1=O (some centres undefined) ?
active

Query: recorded result category for Clc1ncccc1-n1cccc1/C=N\N=C/c1cccn1-c1cccnc1Cl in this test
inactive

Record request — test call for CCN(CC)CCCNc1ccc([N+](=O)[O-])c2nc3ccc(OC)cc3c(N)c12
inactive

Short answer needed: outcome of this test for CC(=O)OC12CCC3C4CC=C5CC(O)CCC5(C)C4C(=O)C3C1(C)N1CC(C)CC(O)C1C2C (centres undefined) ?
inactive

Answer briefly: the call reported for O=[N+]([O-])CCc1ccco1 in this assay.
inactive

Recorded test call requested for C[CH2][Ge]([CH2]C)[CH2]C.C[CH2][Ge]([Cl])[CH2]C.C[CH2][Ge][CH2]C
active

Data origin, for the record: PubChem BioAssay (NCI)
